Assay: chemical genetic growth profiling, strain panel (AID 1159580);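 note: tested at 20 µM; growth read once vehicle control cultures reached saturation at 30 °C; 1 = growth at the plate median or of vehicle wells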
Settings: S. cerevisiae deletion strains, growth OD, locus YMR001C, strain CDC5
Hit rate of the full screen: of about 5,500 compounds, about 2,000 (36%) were called active. Not shown: some 18% with an inconclusive outcome. Cut-off read from the data, not from the text of the source: active = normalized growth mostly below about 0.91 (no sharp cut-off); inconclusive = no clear call, values can overlap the other calls; inactive = mostly above about 0.92. The list shows a part of the results.
Choose the fitting class; nothing outside active, inactive is accepted.

See these solved cases before continuing.
Exam item: Recorded call for O=C(Nc1c(Br)c(C2CC2)nn1-c1ccccc1)C(Cl)(Cl)Cl ?
Marked response: inactive

Exam item: Recorded call for Cc1oc2c(F)c(F)c(F)c(F)c2c1C(=O)ONC(N)c1ccc(OS(=O)(=O)N(C)C)cc1 (stereo unspecified) ?
Marked response: inactive

Next:
Exam item: Recorded call for C/C(=N/NC(N)=S)c1ccccn1 ?
Marked response: inactive

Exam item: Recorded call for NCCCN=c1ccc2c3c1c(O)c1c(O)ccc(=O)c1c3[nH]n2CCNCCO ?
Marked response: inactive

Exam item: Recorded call for N#Cc1c(Cl)c(Cl)c(Cl)c(Cl)c1C#N ?
Marked response: active

Exam item: Recorded call for O=C(CCN1CCCCC1)c1ccc(-c2ccccc2)cc1 ?
Marked response: inactive

Exam item: Recorded call for CC(C)(C)C1=NN(c2nc3ccc(Cl)cc3s2)C(=O)C1 ?
Marked response: active

Exam item: Recorded call for Cn1c([N+](=O)[O-])cnc1/C=C(\C#N)C(=O)Nc1ccc(F)cc1 ?
Marked response: active

Exam item: Recorded call for O=C(NCc1ccco1)c1ccc(Oc2cc(Cl)cc(Cl)c2)o1 ?
Marked response: inactive

Exam item: Recorded call for Cc1c(Cl)cccc1NC(=S)N1CCCN(c2nc3ccc(Cl)cc3s2)CC1 ?
Marked response: inactive

Exam item: Recorded call for O=C(Oc1cc(Cl)c(Cl)cc1Cl)C1c2ccccc2Oc2ccccc21 ?
Marked response: inactive

====

Assay: chemical genetic growth profiling, strain panel (AID 1159580)
Settings: S. cerevisiae deletion strains, growth OD, locus YPL031C, strain PHO85
The whole screen tested about 5,500 compounds, of which about 2,000 (36%) were called active. Roughly 18% stayed inconclusive and do not appear here. Rule as the data show it: active = normalized growth mostly below about 0.91 (no sharp cut-off); inconclusive = no clear call, values can overlap the other calls; inactive = mostly above about 0.92. The list shows a part of the results.
Choose the fitting class; nothing outside Yes = active, No = inactive is accepted.

Exam item: Recorded call for Cc1oc2c(F)c(F)c(F)c(F)c2c1C(=O)ONC(N)c1ccc(OS(=O)(=O)N(C)C)cc1 (stereo unspecified) ?
Marked response: No

Next:
Exam item: Recorded call for O=C(Oc1cc(Cl)c(Cl)cc1Cl)C1c2ccccc2Oc2ccccc21 ?
Marked response: No

Exam item: Recorded call for NC(N)=Nc1nc(-c2cc(Cl)sc2Cl)cs1 ?
Marked response: No

Exam item: Recorded call for S=C(Nc1cc(-c2cccs2)[nH]n1)Nc1ccccc1Cl ?
Marked response: No

Exam item: Recorded call for CC(C)(C)C1=NN(c2nc3ccc(Cl)cc3s2)C(=O)C1 ?
Marked response: Yes

Exam item: Recorded call for N#C/C(=C\c1ccccc1Sc1ccc(Cl)cc1)S(=O)(=O)c1ccccn1 ?
Marked response: No

====

Test: chemical genetic growth profiling, strain panel (AID 1159580)
Details: S. cerevisiae deletion strains, growth OD, locus YMR205C, strain PFK2, stronger effect = lower value
The campaign covered roughly 5,500 compounds. About 2,000 (36%) were called active. About 18% were inconclusive and are not listed. The list shows a part of the results.
Measured normalized growth, listed per entry for reference.
Returns: the value as a bare number; no unit string appended.

Consider the worked cases shown below.
Exam item: Give reported normalized growth value for COc1cc(O)c(C(=O)c2ccccc2)cc1O
Marked response: 0.991

Exam item: Give reported normalized growth value for CCCCOc1ccc(CC(=O)NO)cc1
Marked response: 0.984

Exam item: Give reported normalized growth value for CCOC(=O)c1ncn2c1CN(C)C(=O)c1cc(F)ccc1-2
Marked response: 1.03

Exam item: Give reported normalized growth value for C=CC1=C(C(=O)O)N2C(=O)[C@@H](NC(=O)/C(=N/O)c3csc(N)n3)[C@H]2SC1
Marked response: 1.03

Exam item: Give reported normalized growth value for S=C=NCc1ccccc1
Marked response: 0.175

Next:
Exam item: Give reported normalized growth value for CC(C)N(C(=O)CCl)c1ccccc1
Marked response: 0.919

Exam item: Give reported normalized growth value for COc1ccc(C(=O)c2ccccc2)c(O)c1
Marked response: 0.567

Exam item: Give reported normalized growth value for COc1ccc(C(=O)c2ccccc2O)c(O)c1
Marked response: 0.803

====

Measured normalized growth, listed per entry for reference.
Experiment: chemical genetic growth profiling, strain panel (AID 1159580)
Settings: S. cerevisiae deletion strains, growth OD, locus YDR001C, strain nth1, stronger effect = lower value
Among all 5,500 compounds or so, about 2,000 (36%) were called active. Roughly 18% stayed inconclusive and do not appear here. Some of the results follow.
Returns: the value as a bare number; no unit string appended.

Exam item: Give reported normalized growth value for CCC1(c2ccccc2)C(=O)NCNC1=O
Marked response: 0.987

Exam item: Give reported normalized growth value for COc1ccc2c(c1)C1(C)CCC(=O)CC1CC2 (configuration not stated)
Marked response: 1.01

Exam item: Give reported normalized growth value for COC(=O)C1=COC(OC2OC(CO)C(O)C(O)C2O)C2C(C)CC(=O)C12O (configuration not stated)
Marked response: 0.965

Exam item: Give reported normalized growth value for CC(C)=CCc1c(O)cc2oc(C)cc(=O)c2c1O
Marked response: 0.976

Exam item: Give reported normalized growth value for COC1C(O)C(O)C(O)[C@@H](O)C1O (some centres not stated)
Marked response: 0.964

====

Assay: chemical genetic growth profiling, strain panel (AID 1159580);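 note: tested at 20 µM; growth read once vehicle control cultures reached saturation at 30 °C; 1 = growth at the plate median or of vehicle wells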
Details: S. cerevisiae deletion strains, growth OD, locus YGR252W, strain gcn5, stronger effect = lower value
Out of some 5,500 compounds screened, about 2,000 (36%) were called active. Not shown: some 18% with an inconclusive outcome. The list shows a part of the results.
Field: label. Allowed values: 1 (normalized growth < 1) or 0 (normalized growth >= 1).

See these solved cases before continuing.
Exam item: In the record for COc1ccc(CC2c3cc(OC)c(OC)cc3CCN2C)cc1OC (stereo unspecified) , is normalized growth less than 1?
Marked response: 0

Exam item: In the record for COc1cc(OC)c2c(c1)OC(c1ccc(OC)c(OC)c1)C(O)C2 (stereo unspecified) , is normalized growth less than 1?
Marked response: 0

Exam item: In the record for COc1ccc2c(c1)OC[C@@H](Cc1ccc(OC)c(OC)c1)[C@@H]2O , is normalized growth less than 1?
Marked response: 1

Exam item: In the record for COc1ccc(-c2coc3c(OC)c(O)ccc3c2=O)cc1 , is normalized growth less than 1?
Marked response: 1

Now turn to the next compound.
Exam item: In the record for COc1cc(OC)c2c(c1)O[C@H](c1ccc(OC)c(OC)c1)[C@@H](O)C2 , is normalized growth less than 1?
Marked response: 0

====

Test: chemical genetic growth profiling, strain panel (AID 1159580);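 note: tested at 20 µM; growth read once vehicle control cultures reached saturation at 30 °C; 1 = growth at the plate median or of vehicle wells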
Conditions: S. cerevisiae deletion strains, growth OD, locus YDR195W, strain ref2
Out of some 5,500 compounds screened, about 2,000 (36%) were called active. Another 18% or so got no clear call; they are omitted. Rule as the data show it: active = normalized growth mostly below about 0.91 (no sharp cut-off); inconclusive = no clear call, values can overlap the other calls; inactive = mostly above about 0.92. The list shows a part of the results.
Choose the fitting class; nothing outside True (active), False (inactive) is accepted.

See these solved cases before continuing.
Exam item: Recorded call for OC(CCN1CCCCC1)(c1ccccc1)c1ccccc1 ?
Marked response: False

Exam item: Recorded call for COc1cccc2c1CCC1CC(=O)CCC21C (configuration not stated) ?
Marked response: False

Next:
Exam item: Recorded call for CC1(C)C2CC[C@]3(C)C(C(=O)C=C4[C@H]5C[C@@](C)(C(=O)O)CC[C@]5(C)CC[C@]43C)[C@@]2(C)CC[C@@H]1O (some centres not stated) ?
Marked response: False

Exam item: Recorded call for Cc1cc(=O)c2c(O)cc(O)c(C)c2o1 ?
Marked response: True

Exam item: Recorded call for COc1ccc(-c2coc3c(O)c(OC)ccc3c2=O)cc1 ?
Marked response: False

Exam item: Recorded call for CCSC(=N)N ?
Marked response: False

Exam item: Recorded call for CC1(C)C2CC[C@]3(C)C(C(=O)C=C4[C@@H]5C[C@@](C)(C(=O)O)CC[C@]5(C)CC[C@]43C)[C@@]2(C)CC[C@@H]1O (some centres not stated) ?
Marked response: False

Exam item: Recorded call for COc1cc(O)c2c(=O)cc(C)oc2c1CC=C(C)C ?
Marked response: True

====

Assay: chemical genetic growth profiling, strain panel (AID 1159580);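 note: tested at 20 µM; growth read once vehicle control cultures reached saturation at 30 °C; 1 = growth at the plate median or of vehicle wells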
Settings: S. cerevisiae deletion strains, growth OD, locus YKR001C, strain vps1, stronger effect = lower value
Out of some 5,500 compounds screened, about 2,000 (36%) were called active. Inconclusive results (about 18%) are left out. Some of the results follow.
PROPERTY_LABEL: normalized growth
Returns: the value as a bare number; no unit string appended.

Exam item: Give reported normalized growth value for OCc1ccccc1O[C@@H]1O[C@H](CO)[C@@H](O)[C@H](O)[C@H]1O
Marked response: 0.985

Exam item: Give reported normalized growth value for C=CC1=C(C(=O)O)N2C(=O)[C@@H](NC(=O)/C(=N/O)c3csc(N)n3)[C@H]2SC1
Marked response: 0.979

Exam item: Give reported normalized growth value for Cc1cc(=O)c2c(O)c(C)c(O)cc2o1
Marked response: 0.888
